- measurement.target: TAAR1 (Mus musculus)
- Construct: expressed in transfected cells; host or cells: HEK293 cells (ATCC # CRL-1573), stably transfected with pIRESneo2 expression plasmid; membrane preparation
- Sequence (Q923Y8 whole entry): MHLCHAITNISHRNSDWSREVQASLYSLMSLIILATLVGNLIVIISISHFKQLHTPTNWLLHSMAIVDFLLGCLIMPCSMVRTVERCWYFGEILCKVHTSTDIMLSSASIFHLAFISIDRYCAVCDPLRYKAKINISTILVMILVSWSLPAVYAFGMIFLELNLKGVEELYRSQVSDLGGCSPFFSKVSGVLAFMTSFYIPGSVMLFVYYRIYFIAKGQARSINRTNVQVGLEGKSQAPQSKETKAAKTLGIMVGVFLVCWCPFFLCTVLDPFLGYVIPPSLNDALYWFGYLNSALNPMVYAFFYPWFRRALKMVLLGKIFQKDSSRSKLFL
- assay.remarks: Radioligand binding to TAAR1, membranes of stably transfected HEK293 cells, [3H]-rac-2-(1,2,3,4-tetrahydro-1-naphthyl)-2-imidazoline
- condition.summary: mouse TAAR1; 4° C., 30 minutes incubation; radioligand at 60 nM
Known Ki of a selection of molecules
The answer is to be given in µM; state only the numeric part.

Reference set (2 entries):
molecule | unit.tag | Ki
CC1Cc2ccccc2N1Cc1cnc[nH]1 (racemic) [Example 1] | µM | 0.0688
Cc1cccc2c1N(Cc1cnc[nH]1)CC2 [Example 40] | µM | 0.0405

Brc1ccc2c(c1)CCCN2Cc1cnc[nH]1 [Example 33] yielded Ki of 0.003

COc1cccc2c1N(Cc1cnc[nH]1)CC2 [Example 28] yielded Ki of 0.0409

CC1CCc2cc(F)ccc2N1Cc1cnc[nH]1 (racemic) [Example 6] yielded Ki of 0.0598

CCc1cccc2c1N(Cc1cnc[nH]1)CC2 [Example 23] yielded Ki of 0.0042

Fc1cc2c(cc1F)N(Cc1cnc[nH]1)CC2 [Example 38] yielded Ki of 0.0144

CC1Cc2cc(Cl)ccc2N1Cc1cnc[nH]1 (racemic) [Example 16] yielded Ki of 0.0345

Cc1cccc2c1CCN2Cc1cnc[nH]1 [Example 41] yielded Ki of 0.0104

COc1ccc2c(c1)N(Cc1cnc[nH]1)CC2 [Example 27] yielded Ki of 0.0389
